assay-info: yeast display, Sf9 membrane polyspecificity reagent, FACS + sequencing; frameworks hold sequencing errors
measurement-label: polyreactivity (PSR sort gate)

Sample answers from the record:
- sequence: "QVQLVVSGGGLVQAGGSLRLSCAASGIIFSPYALGWYIQAPGKERELVAAISYSGGSTYYADSVKGRFTISRDNAKNTVYLQMNSLKPEDTAVYYCAVVYSYYLAVMGYWDYDYWGQGTQVTVSS"
  polyreactivity (PSR sort gate): "low polyreactivity"
- sequence: "QVQLVESGGGLVQAGGSLRLSCAASGSTFDVYVMGWYRQAPGKERELVAAISSGDDTNYADSVKGRFTISRDNAKNTVYLQMNSLKPEDTAVYYCAAAYYYYVSGWFDYWGQGTQVTVSS"
  polyreactivity (PSR sort gate): "low polyreactivity"
- sequence: "QVQLVESGGGLVQAGGSLRLSCAASGSIFGRNAMGWYRQAPGKERELVADIWNGGSTYYADSVKGRFTISRDNAKNTVYLQMNCLKPEDTAVYYCNADANDDGRFGGYIKYDYWGQGTQVTVSS"
  polyreactivity (PSR sort gate): "low polyreactivity"
- sequence: "QVQLVESGGGLVQAGGSLRLSCAASGYTFRYYVMGWYRQAPGKERELVATISRGGRTNYADSVKGRFTISRDNAKNTVYLQMNSLKPEDTAVYYCNADWSRVPYRYDYWGQGTQVTVSS"
  polyreactivity (PSR sort gate): "high polyreactivity"

Now for another entry.
(Q) polyreactivity (PSR sort gate) lookup needed for QVQLVESGGGLVQAGGSLRISCAASGSIFVEYDMGWYRQAPGKERELVADISGTGNTYYADSVKGRFTISRDNAKNTVYLQMNSLKPEDTAVYYCAAGTYYQNYWSPFVWYDYWGQGTQVTVSS , thanks.
(A) high polyreactivity

---

assay-info: yeast display, Sf9 membrane polyspecificity reagent, FACS + sequencing; frameworks hold sequencing errors
measurement-label: polyreactivity (PSR sort gate)

- sequence: "QVQLVESGGGLVQAGGSLRLSCAASGSTFQTYAMGWSRQAPGKERELVAAISFNGGSTYYADSVKGRFTISRDNAKNTVYLQMNSLKPEDTAVYYCAVEYTWATALYDGRHDYWGQGTQVTVSS"
  test-value: "high polyreactivity"
- sequence: "QVQLVESGGGFVQAGGSLRLSCAASGLTFYGNVMGWYRQAPGKERELVAAITRRGTSTYYADSVKGRFTLSRDYAKNTVYLQMNRLKPEDTAFYYCAAGTAYSRFGYWGQGTQVTVSS"
  test-value: "high polyreactivity"

---

assay-info: yeast display, Sf9 membrane polyspecificity reagent, FACS + sequencing; frameworks hold sequencing errors
measurement-label: polyreactivity (PSR sort gate)

Sample answers from the record:
- sequence: "QVQLHESGGGLVQAGGSLRMSCAASGTISYAGPMGWYLQATGKESEFVAGIGVGSNTNYADSVKGRYTIIRDNAINTLYLQLNSLQPEDTAVYYGAVGGYAPLGRPYWGQGTQVTVRS"
  polyreactivity (PSR sort gate): "low polyreactivity"
- sequence: "QVQLVESGGGLVQAGGSLRLSCAASGLIFGRYAMGWYRQAPGKERELVAAISSSGVRTYYADSVKGRFTISRDNAKNTVYLQMNSLNPEDTAVYYCAAYDWYISEDYRYYYFWEYDYWGQGTQVTVSS"
  polyreactivity (PSR sort gate): "high polyreactivity"
- sequence: "QVQLVESGGGLVQAGGSLRLSCAASGSIFPWYTMGWYRQAPGKERELVAAITSSGGGTYYADSVKGRFTISRDNAKNTVYLQMNSLKPEDTAVYYCAAGLDWGPEYEYWGQGTQVTVSS"
  polyreactivity (PSR sort gate): "low polyreactivity"
- sequence: "QVQLVESGGGLVQAGGSLRLSCAASGSIFNGYAMGWYRQAPGKERELVAAISWSGVGTYYADSVKGRFTISRDNAKNTVYLQMNSLKPEDTAVYYCAAALPLVDFYDYWGQGTQVTVSS"
  polyreactivity (PSR sort gate): "low polyreactivity"
- sequence: "QVQLVESGGGLVQAGGSLRLSCAASGITFSSYAMGWYRQAPGTEREFVARISTDADTYYADSVKGRFTISRDNAKHTVLLQMNSLKPEDTAVYYCAAEDYRDFDYWGHGTQVTVSS"
  polyreactivity (PSR sort gate): "low polyreactivity"

(Q) polyreactivity (PSR sort gate) lookup needed for QVQLVESGGGLVQAGGSLRLSCAASGFIFSSYAMGWYRQATGKERELVATISWSGGSTYYADSVKGRFTISRDNAKNTVYLQMNSLKPEDTAVYYCAAGYQRYLQRPEFYYWGQGTQVTVSS , thanks.
(A) high polyreactivity

(Q) polyreactivity (PSR sort gate) lookup needed for QVQLVESGGGLVQAGGSLRLSCAASGSTFRLYAMGWYRQAPGKERELVAAISSRGGTTYYADSVKGRFTISRDNAKNTVYLQMNSLKPEDTAVYYCAAPRASQYGDDYWGQGTQVTVSS , thanks.
(A) high polyreactivity

(Q) polyreactivity (PSR sort gate) lookup needed for QVQLVESGGGLVQAGGSLRLSCAASGFIFYHYAMGRYRQAPGKERELVAAISWNGGRTYYADSVKGRFTISRDNAKNTVYLQMNSLKPEDTAVYYCAAYWTRVERVYWGQGTQVTVSS , thanks.
(A) high polyreactivity

(Q) polyreactivity (PSR sort gate) lookup needed for QVQLVESGGGLVQAGGSLRLSCAASGRSFRYNAMGWYRQAPGKARELVAAISSGGSTNYADSVKGRFTTTRDNAKNTVYLQMNSLKPEDTAVYYCNAVYVHRYPGWGYDYWGQGTQVTVSS , thanks.
(A) low polyreactivity

(Q) polyreactivity (PSR sort gate) lookup needed for QVQLVESAGGLVQAGGSLRLSCAASGFTFYGYAMGAYSQAPGKERELVAAITSGGSTNYADAVKGRFTISRDNAKNTVYVQLNSLKPEDTAVYHCAAVWVANTARYSDTFGYWGQGTQVTVSS , thanks.
(A) high polyreactivity

(Q) polyreactivity (PSR sort gate) lookup needed for QVHLVESVGGLVQAGGSLRLSCAASGFIYKPYAMGWYRQAPGKERELVAAITVNGCTTYYADSVKARFTISRDNAKNTVYLQMNSLKPEDTAVYYCNRGSPGGPSWYHYDYWGQGTQVTVSS , thanks.
(A) high polyreactivity

Entry source: the nanobody polyreactivity screen of Harvey et al. (2022)
